MEASURED ON: Insulin-degrading enzyme (Homo sapiens)
ASSAY METHOD TEXT: cellular IDE Abeta-cleavage inhibition – fluorescence polarization, HEK cells, FAbetaB substrate, primary screen (AID 434962);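 further: IDE supplied by intact live HEK cells; FP after avidin binding of uncleaved biotin substrate so inhibition keeps polarization high; 0% = DMSO wells and 100% = 60 µM reference IDE inhibitor Ii1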
PROTOCOL CONDITIONS: at 5.59 µM, stronger effect = higher value
About 1,300 (0.41%) of roughly 320,000 compounds were called active. For the sample, actives were picked, then their nearest neighbours and some compounds at random.
inhibition for assorted molecules
PARAMETER: inhibition (%)

- Cc1cccc(-n2c(Cc3cc(=O)[nH]c(=O)[nH]3)nnc2SC(C)C)c1: 6.03
- CN(C1CCS(=O)(=O)C1)S(=O)(=O)c1ccc2ccccc2c1 (stereo not given): 5.04
- CN(C)c1ccc(C=C2C(=O)OC3(CCCC3)OC2=O)cc1: 0.68
- CCCCN(C1CCS(=O)(=O)C1)S(=O)(=O)c1ccc(C(C)C)cc1 (stereo not given): 5.43
- Cc1nc2ccccc2c(=O)n1NC(=O)c1ccccc1: 7.25
- O=C(/C=C(O)/C=C/c1ccc(O)cc1)/C=C/c1ccc(O)cc1: 138
- Cc1ccnc(N2CCCC(C(=O)NC3CC3)C2)n1 (stereo not given): 1.69
- O=C(Nc1ccc(Sc2ccc(Br)cc2)cc1)c1ccco1: 17.8
- Cc1ccc(-c2cc(C(=O)N3CCc4ccccc4C3)no2)cc1: -0.51
- O=C(CNC(=O)c1ccco1)NNC(=O)c1ccc(Br)cc1: 2.95
- Cc1cc(OCCCC(=O)NCCN2C(=O)S/C(=C\c3cccnc3)C2=O)ccc1Cl: 3.84
- Cc1cccc(-n2c(Cc3cc(=O)[nH]c(=O)[nH]3)nnc2SCC(=O)Nc2cccc(C(F)(F)F)c2)c1: 18.2
- CCOc1ccc(NC(=O)c2ccc(NC(=O)C3CCCO3)cc2)cc1 (stereo not given): 3.26
- CCc1ccc(N(C(=O)c2csnn2)C(C(=O)NC2CCCCC2)c2ccncc2)cc1 (stereo not given): 3.98
- O=C(NNS(=O)(=O)c1c(F)cc(F)c(Cl)c1F)C12CC3CC(CC(C3)C1)C2: -2.1
- CCn1c(O)c(N=NC2=NC(=O)CS2)c2cc(C)ccc21: 5.14
- CN(C)/C=C/C(=O)c1cnc2sccn2c1=O: -1.17
- Cc1cccc2sc(N(CCCN(C)C)C(=O)CCS(=O)(=O)c3ccccc3)nc12: 1.58
- COc1cccc(-n2c(Cc3cc(=O)[nH]c(=O)[nH]3)nnc2SCC(=O)Nc2ccccc2)c1: 2.57
- CC[C@H]1OC(=O)[C@H](C)[C@@H](O[C@H]2C[C@@](C)(OC)[C@@H](O)[C@H](C)O2)[C@H](C)[C@@H](O[C@@H]2O[C@H](C)C[C@H](N(C)C)[C@H]2O)[C@](C)(O)C[C@@H](C)[C@@H]2N[C@@H](COCCOC)O[C@H]([C@H]2C)[C@]1(C)O: -4.09

* * *

MEASURED ON: Insulin-degrading enzyme (Homo sapiens) (UniProt P14735)
Sequence (P14735 whole entry, looked up): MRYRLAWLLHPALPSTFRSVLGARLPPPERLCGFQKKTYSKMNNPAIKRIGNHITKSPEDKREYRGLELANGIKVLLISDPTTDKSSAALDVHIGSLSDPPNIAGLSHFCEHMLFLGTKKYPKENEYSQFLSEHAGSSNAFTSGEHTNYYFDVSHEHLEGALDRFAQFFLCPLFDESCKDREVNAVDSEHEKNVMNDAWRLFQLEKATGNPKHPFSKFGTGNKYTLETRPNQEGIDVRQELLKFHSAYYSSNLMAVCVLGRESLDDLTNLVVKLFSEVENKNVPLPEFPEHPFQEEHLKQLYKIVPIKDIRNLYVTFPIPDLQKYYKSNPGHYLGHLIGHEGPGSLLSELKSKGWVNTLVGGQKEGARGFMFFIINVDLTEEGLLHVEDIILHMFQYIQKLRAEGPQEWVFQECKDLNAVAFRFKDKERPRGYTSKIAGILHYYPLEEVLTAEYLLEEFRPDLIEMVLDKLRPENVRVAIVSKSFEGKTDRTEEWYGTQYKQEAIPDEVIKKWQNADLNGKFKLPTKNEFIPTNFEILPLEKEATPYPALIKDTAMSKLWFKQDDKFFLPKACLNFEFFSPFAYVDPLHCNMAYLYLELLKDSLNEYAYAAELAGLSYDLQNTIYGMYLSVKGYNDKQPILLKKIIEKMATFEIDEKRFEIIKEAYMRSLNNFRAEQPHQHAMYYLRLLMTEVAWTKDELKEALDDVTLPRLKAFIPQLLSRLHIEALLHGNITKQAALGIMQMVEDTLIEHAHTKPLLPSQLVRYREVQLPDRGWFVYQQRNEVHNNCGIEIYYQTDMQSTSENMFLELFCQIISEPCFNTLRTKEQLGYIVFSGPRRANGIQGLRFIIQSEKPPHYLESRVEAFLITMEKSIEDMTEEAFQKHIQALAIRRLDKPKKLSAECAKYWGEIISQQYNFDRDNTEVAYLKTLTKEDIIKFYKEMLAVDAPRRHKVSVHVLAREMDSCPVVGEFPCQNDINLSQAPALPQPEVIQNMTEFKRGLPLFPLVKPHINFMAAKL
ASSAY METHOD TEXT: cellular IDE Abeta-cleavage inhibition – fluorescence polarization, HEK cells, FAbetaB substrate, primary screen (AID 434962);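 further: IDE supplied by intact live HEK cells; FP after avidin binding of uncleaved biotin substrate so inhibition keeps polarization high; 0% = DMSO wells and 100% = 60 µM reference IDE inhibitor Ii1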
PROTOCOL CONDITIONS: at 5.59 µM
In all, about 320,000 compounds went through this assay and about 1,300 (0.41%) were called active.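 Rule for the calls: active = percent inhibition above the average of all tested compounds plus 3 SD, set per screening campaign (cut at about 16% in these data); inactive = the rest.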 The sample holds actives, similar compounds and a random draw of the others, so the mix is not that of the screen.
Outcomes: active, inactive

• O=C(Cn1nnc2ccccc2c1=O)Nc1cc(C(F)(F)F)ccc1N1CCOCC1 = inactive
• Cc1cc(N2C(=O)C(O)=C(C(=O)c3ccc(C)o3)C2c2ccc(OCc3ccccc3)cc2)no1 (configuration not stated) = inactive
• Cc1ccccc1NC(=O)Cc1nc(COC(=O)c2ccc(C(F)(F)F)cc2)cs1 = inactive
• COc1ccc(NC(=O)C(C)SCc2ccccc2)cc1 (configuration not stated) = inactive
• Cc1cccc(N2CCN(C(=O)c3cccc(N4C(=O)C5C6C=CC(C6)C5C4=O)c3)CC2)c1C (configuration not stated) = active
• CN1CCNC(=O)C1CC(=O)NCCC1=CCCCC1 (configuration not stated) = inactive
• COc1cc(C(=O)NCC(=O)N2CC=C(c3ccccc3)CC2)cc(OC)c1OC = inactive
• CC1(C)Cc2cccc(OCC(=O)NCc3ccccc3)c2O1 = inactive
• C=CCC1=C/C(=C\c2c(N)n3nc(CC(=O)N4CCOCC4)sc3nc2=O)C=C(OC)C1=O = active
• C=CCOc1cccc(C2C(C(=O)c3ccc(C)o3)=C(O)C(=O)N2c2nnc(C)s2)c1 (configuration not stated) = active
• O=C(NCCC1CCCCN1S(=O)(=O)c1ccccc1)C(=O)NCC1CCCO1 (configuration not stated) = inactive
• O=C(NNC(=O)c1ccc(-c2ccccc2)cc1)Nc1ccccc1 = inactive
• Cc1c(NC(=O)C(C)OC(=O)c2cc3c4ccccc4n(C)c3s2)c(=O)n(-c2ccccc2)n1C (configuration not stated) = inactive
• COc1cc(/C=C2\C(=N)N3N=C(CC(=O)N4CCOCC4)SC3=NC2=O)cc(OC)c1OC = inactive
• O=C(NCCc1c[nH]c2ccccc12)C1CCN(Cc2ccc(Br)cc2)CC1 = inactive
• CC(=O)c1cc(NC(=O)c2ccccc2)c(=O)oc1/C=C/N(C)C = active
• CC1CCCC(NC(=O)COC(=O)[C@@H]2CC(O)CN2S(=O)(=O)c2ccc3c(c2)OCCO3)C1C (some centres not stated) = inactive
• N#C/C(=C/c1ccc(N2CCCCC2)o1)C(=O)NCCc1c[nH]c2ccccc12 = active
• COC(=O)Nc1ccc(S(=O)(=O)Nc2cc(OC)nc(OC)n2)cc1 = inactive
• CCOC(=O)c1cc(NC(=O)c2ccc(Cl)cc2)c(=O)oc1-c1ccccc1 = inactive
• O=C(C1=C[C@H](c2coc3ccccc3c2=O)C[C@H](OCc2ccc(CO)cc2)O1)N1CCOCC1 = inactive
• Cn1cncc1C#Cc1c(-c2ccsc2)sc2ccccc12 = inactive
• COc1ccc(C(=O)Nc2nc(-c3ccc(S(=O)(=O)N4CCOCC4)cc3)cs2)cc1 = active
• CC1CCCCN1S(=O)(=O)CCNC(=O)c1ccccc1 (configuration not stated) = inactive
• CNC(=O)/C(C#N)=C/c1c(F)cccc1Cl = inactive
• CCOC(=O)N1CCN(C(=O)CSc2nc(=O)n3cccc(C)c3n2)CC1 = inactive
• Cc1ccccc1Nc1nnc(SCC(=O)c2cc3ccccc3o2)s1 = active
• CC(C(=O)c1ccc(-c2ccccc2)cc1)[n+]1cccc(Br)c1 (configuration not stated) = active
• COC1=C/C(=C/c2c(N)n3nc(CC(=O)N4CCOCC4)sc3nc2=O)C=CC1=O = inactive
• CCOC(=O)CNc1nc(Cl)nc(Nc2ccc(OC)cc2OC)n1 = inactive
• Cc1ccc(S(=O)(=O)N2CCN(CC(=O)N/N=C/c3ccc(Br)s3)CC2)cc1 = inactive
• CC1C(=O)Nc2ccc(S(=O)(=O)N3CCN(c4ccccc4F)CC3)cc2NC1=O (configuration not stated) = inactive
• CC(=O)Nc1ccc(S(=O)(=O)N2CCN(CCCOc3cc(C)ccc3C)CC2)cc1 = inactive
• CNC(=O)c1ccsc1NC(=O)c1ccc(S(=O)(=O)N2CCOCC2)cc1 = inactive
• O=C(CN1C(=O)NC2(CCCCC2)C1=O)NCCc1c[nH]c2ccccc12 = inactive
• CCN(CCCNC(=O)c1ccc2c(c1)NC(=O)CN2C)c1cccc(C)c1 = inactive
• C=CCOc1ccccc1NC(=O)CN1C(=O)CNC1=O = inactive
• O=S1(=O)CC(NCc2ccccc2)C(Nc2ccc(Cl)cc2)C1 (configuration not stated) = inactive
• Cc1cc(C(=O)NCCc2ccc(Cl)cc2)c(C)o1 = inactive
• O=C1CCN(CCCc2ccccc2)CCN1CCO = inactive
• O=C(c1cccc(Br)c1)N1CCN(C2=NS(=O)(=O)c3ccccc32)CC1 = inactive
• O=C(C1=C[C@H](c2ccc(C(F)(F)F)cc2)C[C@H](OCc2ccc(CO)cc2)O1)N1CCN(Cc2ccccc2)CC1 = inactive

Data origin, for the record: PubChem BioAssay AID434962
